# assay system: human B1R receptor (hB1R) (Homo sapiens, UniProt P46663)
# Construct: host or cells: CHO K1 cells
# Sequence (P46663 whole entry): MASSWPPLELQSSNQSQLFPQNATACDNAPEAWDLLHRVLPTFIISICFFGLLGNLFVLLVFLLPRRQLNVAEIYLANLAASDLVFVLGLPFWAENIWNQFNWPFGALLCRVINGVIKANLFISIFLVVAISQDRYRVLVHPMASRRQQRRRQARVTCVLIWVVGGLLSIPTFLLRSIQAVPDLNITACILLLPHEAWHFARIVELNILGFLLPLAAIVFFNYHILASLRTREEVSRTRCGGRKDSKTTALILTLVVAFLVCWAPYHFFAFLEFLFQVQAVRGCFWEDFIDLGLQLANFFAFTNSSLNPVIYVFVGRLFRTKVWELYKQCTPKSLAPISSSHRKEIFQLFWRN
# test protocol: FLIPR Ca2+ assay on hB1R-transfected CHO K1 cells, antagonistic action
# Type: cell-based
# assay setup: CHO-K1, 10 μM test substance; agonist Lys-Des-Arg9-bradykinin 0.5 nM; % of maximum achievable inhibition; read-out: hB1R [10 μM] % inhibition
A collection of molecules and their measured inhibition at 10 µM
Your answer should be a plain number; it is taken to be in %.

>  <molecule>
COc1cc(C)c(S(=O)(=O)N2CCCCC2COCC(=O)N(C)CCCC2CCC(c3ccccc3)(N3CCC3)CC2)c(C)c1 (centres unmarked)

>  <assay system>
human B1R receptor (hB1R) (Homo sapiens, UniProt P46663)

>  <value kind>
inhibition at 10 µM

>  <recorded value>
100

$$$$

The record that follows has no inhibition at 10 µM shown yet.
stdin: Value lookup for inhibition at 10 µM; key = Cc1cc(S(=O)(=O)N2CCCCC2CCC(=O)N2CCC(CCc3ccccc3)(N(C)C)CC2)c(C)cc1Cl (centres unmarked)
stdout: 104

###

# assay system: B1R receptor of the rat (rB1R) (Rattus norvegicus, UniProt P97583)
# Construct: host or cells: CHO K1 cells
# Sequence (P97583 1-337): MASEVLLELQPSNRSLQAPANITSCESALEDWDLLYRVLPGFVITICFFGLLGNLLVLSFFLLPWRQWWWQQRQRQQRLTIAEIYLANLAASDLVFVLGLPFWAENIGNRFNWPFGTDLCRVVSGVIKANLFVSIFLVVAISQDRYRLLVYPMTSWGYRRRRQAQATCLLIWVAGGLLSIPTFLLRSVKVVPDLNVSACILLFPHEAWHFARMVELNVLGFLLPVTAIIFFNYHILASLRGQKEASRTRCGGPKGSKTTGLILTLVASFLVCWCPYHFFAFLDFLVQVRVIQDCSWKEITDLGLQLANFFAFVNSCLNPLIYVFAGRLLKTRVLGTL
# test protocol: FLIPR Ca2+ assay on rB1R-transfected CHO K1 cells, antagonistic action
# Assay type: cell-based
# assay setup: CHO-K1, 10 μM test substance; agonist Des-Arg9-bradykinin 100 nM; % of maximum achievable inhibition; read-out: rB1R [10 μM] % inhibition
value kind: inhibition at 10 µM (%)
Your answer should be a plain number; it is taken to be in %.

>  <compound>
O=C(COCC1CCCN1S(=O)(=O)c1c(Cl)cc(Cl)cc1Cl)NC1CCC(Cc2ccccc2)(N2CCCC2)CC1 (centres unmarked)

>  <assay system>
B1R receptor of the rat (rB1R) (Rattus norvegicus, UniProt P97583)

>  <value kind>
inhibition at 10 µM

>  <recorded value>
100

$$$$
>  <compound>
Cc1cc(S(=O)(=O)N2CCCCC2CCC(=O)N(C)CC2CCC(CCc3ccccc3)(N3CCCC3)CC2)c(C)cc1Cl (centres unmarked)

>  <assay system>
B1R receptor of the rat (rB1R) (Rattus norvegicus, UniProt P97583)

>  <value kind>
inhibition at 10 µM

>  <recorded value>
20

$$$$
>  <compound>
COc1cc(C)c(S(=O)(=O)N2CCC(OCC(=O)NC3CCC(c4ccccc4)(N4CCCC4)CC3)C2)c(C)c1 (centres unmarked)

>  <assay system>
B1R receptor of the rat (rB1R) (Rattus norvegicus, UniProt P97583)

>  <value kind>
inhibition at 10 µM

>  <recorded value>
102

$$$$

stdin: Value lookup for inhibition at 10 µM; key = COc1cc(C)c(S(=O)(=O)N(C)CCOCC(=O)NC2CCC(c3ccccc3)(N3CCCC3)CC2)c(C)c1 (centres unmarked)
stdout: 104

stdin: Value lookup for inhibition at 10 µM; key = COc1cc(C)c(S(=O)(=O)N(C)CCOCC(=O)N(C)CCC2CCC(CCc3ccccc3)(N(C)C)CC2)c(C)c1 (centres unmarked)
stdout: 100

stdin: Value lookup for inhibition at 10 µM; key = COc1cc(C)c(S(=O)(=O)N2CCCC2COCC(=O)NC2CCC(c3ccccc3)(N3CCCC3)CC2)c(C)c1 (centres unmarked)
stdout: 110

stdin: Value lookup for inhibition at 10 µM; key = CN(C)C1(CCc2ccccc2)CCN(C(=O)CC2CCCCN2S(=O)(=O)c2cccc(C(F)(F)F)c2)CC1 (centres unmarked)
stdout: 99
